# assay_summary: Phase 1A pharmacokinetics of oral NNI-362 in 1% methylcellulose suspension (Cohorts A-E)
# Assay type: in vivo, human
# cond: human, plasma, 120 mg oral, SAD, individual subjects
observed_property: MRT inf (h)
One number for each entry, in h.

State the recorded MRT inf for this entry: CCOc1ccccc1NC(=S)N1CCCN(c2nc3cc(C)c(C)cc3cc2C#N)CC1 [NNI-362]
5.5

---

# assay_summary: Phase 1A pharmacokinetics of oral NNI-362 in 1% methylcellulose suspension (Cohorts A-E)
# Format: in vivo, human
# cond: human, plasma, 120 mg oral, SAD, individual subjects
observed_property: half-life (h)
Numbers only, in h.

# query: half-life of entry CCOc1ccccc1NC(=S)N1CCCN(c2nc3cc(C)c(C)cc3cc2C#N)CC1 [NNI-362]
13.7

---

# assay_summary: Phase 1A pharmacokinetics of oral NNI-362 in 1% methylcellulose suspension (Cohorts A-E)
# Format: in vivo, human
# cond: human, plasma, po, 20 mg, 20 mg oral, MAD, individual subjects, read-out: Tmax
observed_property: Tmax (h)
Give bare numbers, in h.

Given the entry CCOc1ccccc1NC(=S)N1CCCN(c2nc3cc(C)c(C)cc3cc2C#N)CC1 , report its measured Tmax.
12

---

# assay_summary: Phase 1A pharmacokinetics of oral NNI-362 in lipid-based formulation (Cohorts F and G)
# Format: in vivo, human
# cond: oral; Formulation F2, Cohort F, 120 mg single dose, Day 1, K3 EDTA human plasma, patient SRI-F-005, 6 h
observed_property: concentration at 6 h (ng/mL)
One number for each entry, in ng/mL.

Form field: reported concentration at 6 h of CCOc1ccccc1NC(=S)N1CCCN(c2nc3cc(C)c(C)cc3cc2C#N)CC1 [NNI-362]
0.0267

---

# assay_summary: Phase 1A pharmacokinetics of oral NNI-362 in lipid-based formulation (Cohorts F and G)
# Assay type: in vivo, human
# cond: human, plasma, po, 120 mg, Cohort F, 120 mg oral, SAD, lipid formulation, cohort mean
observed_property: AUC(0-t) (ng·h/mL)
Numbers only, in ng·h/mL.

Requested read-out: AUC(0-t). Entry: CCOc1ccccc1NC(=S)N1CCCN(c2nc3cc(C)c(C)cc3cc2C#N)CC1
0.559

---

# assay_summary: Phase 1A pharmacokinetics of oral NNI-362 in lipid-based formulation (Cohorts F and G)
# Assay type: in vivo, human
# cond: human, plasma, po, 240 mg, Cohort G, 240 mg oral, MAD, lipid formulation, cohort mean
# Protocol: Exemplary Formulation F2 was prepared by slowly adding NNI-362 into a jar containing 100 mL of lipid-based MCT/Kolliphor EL/Beeswax (95/3/2% w/w) while mixing and then stirring until all powder is wet. […] PK data analysis was performed on the measurable plasma concentrations of NNI-362. The plasma concentration data were evaluated using Phoenix 64® WinNonlin® software (Version 8.3) to perform noncompartmental analysis. […] The correlation coefficient for the terminal phase was determined using WinNonlin. […]
observed_property: AUC(0-inf) (ng·h/mL)
Give bare numbers, in ng·h/mL.

Consider the molecule shown here: CCOc1ccccc1NC(=S)N1CCCN(c2nc3cc(C)c(C)cc3cc2C#N)CC1 What is its recorded AUC(0-inf)?
2.83

---

# assay_summary: Phase 1A pharmacokinetics of oral NNI-362 in 1% methylcellulose suspension (Cohorts A-E)
# Format: in vivo, human
# cond: human, plasma, 60 mg oral, SAD, individual subjects
observed_property: MRT inf (h)
One number for each entry, in h.

For the molecule shown here, CCOc1ccccc1NC(=S)N1CCCN(c2nc3cc(C)c(C)cc3cc2C#N)CC1 , give the reported MRT inf.
9.2

All values here come from patent US20240285646A1.
